# TARGET: T1, cynomolgus monkey IL-33 expressed with a C-terminal hexahistidine tag (cynomolgus monkey)
# T1 construct: also called MfIL-33-6His; Mf-IL-33-6His
# T1 chain: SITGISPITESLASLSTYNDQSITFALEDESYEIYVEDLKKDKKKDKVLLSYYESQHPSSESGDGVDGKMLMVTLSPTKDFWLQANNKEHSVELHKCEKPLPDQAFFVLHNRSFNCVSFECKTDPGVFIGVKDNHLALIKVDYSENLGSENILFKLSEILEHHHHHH
# METHOD_SUMMARY: SPR 37C pH7.4, mAb captured
Quick list: kon per entry.
Quick reminder: number only, in M⁻¹ s⁻¹, skip the unit.

BINDER	VALUE_OBSERVED
H4H9629P (antibody, human IgG4, V domains shown, Human IgG4 Fc (H4H)) VH: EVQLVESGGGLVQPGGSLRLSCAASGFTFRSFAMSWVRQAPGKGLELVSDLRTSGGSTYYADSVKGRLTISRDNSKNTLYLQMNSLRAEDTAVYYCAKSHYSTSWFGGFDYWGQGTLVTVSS VL: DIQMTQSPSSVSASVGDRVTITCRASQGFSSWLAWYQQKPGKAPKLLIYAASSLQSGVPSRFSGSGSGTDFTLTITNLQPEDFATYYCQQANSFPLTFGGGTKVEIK	1.07e+06
H4H9665P (antibody, human IgG4, V domains shown, Human IgG4 Fc (H4H)) VH: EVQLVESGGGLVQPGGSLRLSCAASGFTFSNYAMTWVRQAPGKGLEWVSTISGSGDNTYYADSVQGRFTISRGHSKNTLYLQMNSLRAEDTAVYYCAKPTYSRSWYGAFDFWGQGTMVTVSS VL: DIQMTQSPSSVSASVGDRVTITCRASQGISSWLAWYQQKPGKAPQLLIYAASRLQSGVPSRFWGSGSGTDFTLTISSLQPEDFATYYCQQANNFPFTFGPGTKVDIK	1.1e+06
H4H9640P (antibody, human IgG4, V domains shown, Human IgG4 Fc (H4H)) VH: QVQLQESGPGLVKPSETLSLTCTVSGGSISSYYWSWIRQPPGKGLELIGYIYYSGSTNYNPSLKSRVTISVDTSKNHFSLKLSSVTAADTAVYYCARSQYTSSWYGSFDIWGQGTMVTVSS VL: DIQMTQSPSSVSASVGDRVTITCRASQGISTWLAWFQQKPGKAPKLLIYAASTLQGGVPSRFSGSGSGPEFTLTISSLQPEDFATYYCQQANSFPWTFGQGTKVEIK	810000

# query: kon of entry H4H9664P (antibody, human IgG4, V domains shown, Human IgG4 Fc (H4H)) VH: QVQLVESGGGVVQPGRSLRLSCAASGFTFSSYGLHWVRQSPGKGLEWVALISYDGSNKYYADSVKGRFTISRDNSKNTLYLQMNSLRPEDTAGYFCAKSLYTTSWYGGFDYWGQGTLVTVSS VL: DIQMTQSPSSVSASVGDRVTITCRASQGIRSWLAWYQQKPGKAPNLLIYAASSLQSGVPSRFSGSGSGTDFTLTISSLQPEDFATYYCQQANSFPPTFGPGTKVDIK 361000

// next record H4H9672P (antibody, human IgG4, V domains shown, Human IgG4 Fc (H4H)) VH: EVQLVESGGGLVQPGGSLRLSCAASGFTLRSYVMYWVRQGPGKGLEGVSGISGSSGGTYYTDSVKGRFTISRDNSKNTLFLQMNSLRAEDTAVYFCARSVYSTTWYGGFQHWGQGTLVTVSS VL: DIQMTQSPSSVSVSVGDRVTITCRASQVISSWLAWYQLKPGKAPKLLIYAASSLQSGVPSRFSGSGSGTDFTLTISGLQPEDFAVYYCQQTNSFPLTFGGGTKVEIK 946000
